Source listed as ChEMBL document CHEMBL1156777.

- System: Trypanosoma brucei rhodesiense
- protocolSummary: Antitrypanosomal activity against Trypanosoma brucei rhodesiense STIB900 after 70 hrs by alamar blue assay
- Format: functional, organism-based
- testContext: STIB900, 70 h
Class key for IC50 values: LOW: < 40 nM; MEDIUM: ≥ 40 nM and < 600 nM; HIGH: ≥ 600 nM

# chemicalSmiles, discreteLabel
measured = [
    ("CC(C)NC(=N)c1cccc(-n2cc(-c3cc(C(=N)NC(C)C)ccc3O)nn2)c1", "HIGH"),
    ("Cl.Cl.N=C(N)c1ccc(-c2cn(-c3ccc(C(=N)N)cc3)nn2)cc1", "LOW"),
    ("COc1cc(C(=N)N)ccc1-n1cc(-c2ccc(C(=N)N)cc2)nn1.Cl.Cl", "LOW"),
    ("COc1ccc(C(=N)N)cc1-n1cc(-c2ccc(C(=N)N)cc2)nn1.Cl.Cl", "LOW"),
    ("CC(C)NC(=N)c1ccc(-n2cc(-c3ccc(C(=N)NC(C)C)cc3O)nn2)cc1.Cl.Cl", "LOW"),
    ("COc1ccc(C2=NCCN2)cc1-n1cc(-c2cccc(C3=NCCN3)c2)nn1", "HIGH"),
    ("CC(C)NC(=N)c1ccc(-n2cc(-c3cccc(C(=N)NC(C)C)c3)nn2)cc1", "MEDIUM"),
    ("CC(C)NC(=N)c1cccc(-n2cc(-c3ccc(C(=N)NC(C)C)cc3O)nn2)c1.Cl.Cl", "MEDIUM"),
    ("CC(C)NC(=N)c1ccc(-n2cc(-c3cc(C(=N)NC(C)C)ccc3O)nn2)cc1.Cl", "MEDIUM"),
    ("N=C(N)c1ccc(-c2cn(-c3cc(C(=N)N)ccc3O)nn2)cc1", "HIGH"),
    ("COc1ccc(C2=NCCN2)cc1-n1cc(-c2ccc(C3=NCCN3)cc2)nn1", "MEDIUM"),
    ("Cl.Cl.N=C(N)c1ccc(-n2cc(-c3cccc(C(=N)N)c3)nn2)cc1", "LOW"),
    ("c1cc(C2=NCCN2)cc(-n2cc(-c3ccc(C4=NCCN4)cc3)nn2)c1", "MEDIUM"),
    ("Cl.Cl.Oc1cc(C2=NCCN2)ccc1-c1cn(-c2ccc(C3=NCCN3)cc2)nn1", "LOW"),
    ("COc1cc(C(=N)N)ccc1-c1cn(-c2cccc(C(=N)N)c2)nn1.Cl.Cl", "LOW"),
    ("CC(C)NC(=N)c1ccc(-c2cn(-c3ccc(C(=N)NC(C)C)cc3O)nn2)cc1", "HIGH"),
    ("Oc1cc(C2=NCCN2)ccc1-n1cc(-c2cccc(C3=NCCN3)c2)nn1", "HIGH"),
    ("COc1cc(C2=NCCN2)ccc1-n1cc(-c2ccc(C3=NCCN3)cc2)nn1", "HIGH"),
    ("COc1cc(C(=N)NC(C)C)ccc1-n1cc(-c2ccc(C(=N)NC(C)C)cc2)nn1", "MEDIUM"),
]

---

- protocolSummary: Selectivity index, ratio of IC50 for rat L6 cells to IC50 for Plasmodium falciparum K1
- Format: toxicity, cell-based
- testContext: read-out: Ratio IC50
Listed next: entries and their corresponding selectivity ratio.
parameter: selectivity ratio

# chemicalSmiles, parameter, measuredResult
data = [
    ("COc1cc(C(=N)NC(C)C)ccc1-c1cn(-c2cccc(C(=N)NC(C)C)c2)nn1", "selectivity ratio", "> 5000"),
    ("CC(C)NC(=N)c1ccc(-c2cn(-c3ccc(C(=N)NC(C)C)cc3)nn2)cc1.Cl.Cl", "selectivity ratio", "> 36600"),
    ("CC(C)NC(=N)c1cccc(-c2cn(-c3cc(C(=N)NC(C)C)ccc3O)nn2)c1", "selectivity ratio", "> 226"),
    ("CC(C)NC(=N)c1cccc(-n2cc(-c3cc(C(=N)NC(C)C)ccc3O)nn2)c1", "selectivity ratio", "> 742"),
    ("Cl.Cl.Oc1ccc(C2=NCCN2)cc1-c1cn(-c2ccc(C3=NCCN3)cc2)nn1", "selectivity ratio", "> 21100"),
    ("COc1cc(C(=N)NC(C)C)ccc1-n1cc(-c2ccc(C(=N)NC(C)C)cc2)nn1", "selectivity ratio", "> 8630"),
    ("CC(C)NC(=N)c1cccc(-c2cn(-c3ccc(C(=N)NC(C)C)cc3O)nn2)c1", "selectivity ratio", "> 157"),
    ("COc1ccc(C(=N)N)cc1-n1cc(-c2ccc(C(=N)N)cc2)nn1.Cl.Cl", "selectivity ratio", "> 11800"),
    ("CC(C)NC(=N)c1ccc(-n2cc(-c3ccc(C(=N)NC(C)C)cc3O)nn2)cc1.Cl.Cl", "selectivity ratio", "> 25700"),
]

---

The reader will find reported Activity values listed item by item below.
- System: Trypanosoma brucei rhodesiense
- protocolSummary: Antitrypanosomal activity against Trypanosoma brucei rhodesiense STIB900 infected in NMRI mouse assessed as mean parasitemia relaps day at 5 mg/kg, ip
- Assay type: functional
- testContext: route intraperitoneal

# chemicalSmiles, u, Activity
records = [
    ("COc1ccc(C(=N)N)cc1-c1cn(-c2ccc(C(=N)N)cc2)nn1.Cl.Cl", "days", 15.5),
    ("CC(C)NC(=N)c1cccc(-n2cc(-c3ccc(C(=N)NC(C)C)cc3O)nn2)c1.Cl.Cl", "days", 18),
    ("COc1ccc(C(=N)N)cc1-n1cc(-c2cccc(C(=N)N)c2)nn1.Cl.Cl", "days", 17),
    ("Cl.Cl.c1cc(-c2cn(-c3ccc(C4=NCCN4)cc3)nn2)ccc1C1=NCCN1", "days", 8),
    ("Cl.Cl.N=C(N)c1cccc(-n2cc(-c3ccc(C(=N)N)cc3O)nn2)c1", "days", 39),
    ("COc1cc(C(=N)N)ccc1-n1cc(-c2cccc(C(=N)N)c2)nn1.Cl.Cl", "days", 13),
    ("COc1ccc(C2=NCCN2)cc1-c1cn(-c2ccc(C3=NCCN3)cc2)nn1.Cl.Cl", "days", 26),
    ("CC(C)NC(=N)c1ccc(-c2cn(-c3ccc(C(=N)NC(C)C)cc3)nn2)cc1.Cl.Cl", "days", 8),
    ("N=C(N)c1ccc(OCCCCCOc2ccc(C(=N)N)cc2)cc1", "days", 20),
]

---

- Test system: Leishmania donovani
- protocolSummary: Antileishmanial activity against Leishmania donovani MHOM/SD/62/1S-CL2D
- Format: functional, organism-based
pIC50: −log10 of the molar value.

# chemicalSmiles, measurementQualifier, pIC50
rows = [
    ("Oc1ccc(C2=NCCN2)cc1-n1cc(-c2ccc(C3=NCCN3)cc2)nn1", "<", 4.00),
    ("COc1ccc(C2=NCCN2)cc1-n1cc(-c2cccc(C3=NCCN3)c2)nn1", "<", 4.00),
    ("COc1cc(C(=N)N)ccc1-c1cn(-c2cccc(C(=N)N)c2)nn1.Cl.Cl", "=", 4.96),
    ("Cl.Cl.N=C(N)c1ccc(-n2cc(-c3ccc(C(=N)N)cc3O)nn2)cc1", "=", 5.37),
    ("c1cc(C2=NCCN2)cc(-c2cn(-c3ccc(C4=NCCN4)cc3)nn2)c1", "<", 4.00),
    ("CC(C)NC(=N)c1ccc(-c2cn(-c3cc(C(=N)NC(C)C)ccc3O)nn2)cc1", "<", 4.00),
    ("Cl.Cl.c1cc(-c2cn(-c3ccc(C4=NCCN4)cc3)nn2)ccc1C1=NCCN1", "<", 4.00),
    ("COc1cc(C(=N)NC(C)C)ccc1-c1cn(-c2cccc(C(=N)NC(C)C)c2)nn1", "=", 4.49),
    ("Cl.Cl.Oc1ccc(C2=NCCN2)cc1-c1cn(-c2ccc(C3=NCCN3)cc2)nn1", "=", 4.37),
    ("Oc1ccc(C2=NCCN2)cc1-c1cn(-c2cccc(C3=NCCN3)c2)nn1", "<", 4.00),
]

---

- protocolSummary: Selectivity index, ratio of IC50 for rat L6 cells to IC50 for Plasmodium falciparum K1
- Format: toxicity, cell-based
- testContext: read-out: Ratio IC50

# chemicalSmiles, selectivity ratio
measured = [
    ("CC(C)NC(=N)c1ccc(-c2cn(-c3ccc(C(=N)NC(C)C)cc3O)nn2)cc1", "> 223"),
    ("COc1ccc(C(=N)NC(C)C)cc1-c1cn(-c2cccc(C(=N)NC(C)C)c2)nn1", "> 1660"),
    ("COc1cc(C2=NCCN2)ccc1-c1cn(-c2ccc(C3=NCCN3)cc2)nn1", 12900),
    ("COc1cc(C2=NCCN2)ccc1-n1cc(-c2cccc(C3=NCCN3)c2)nn1", "> 2980"),
    ("c1cc(C2=NCCN2)cc(-n2cc(-c3ccc(C4=NCCN4)cc3)nn2)c1", 1400),
    ("COc1cc(C(=N)NC(C)C)ccc1-n1cc(-c2cccc(C(=N)NC(C)C)c2)nn1", "> 2890"),
    ("COc1ccc(C(=N)NC(C)C)cc1-c1cn(-c2ccc(C(=N)NC(C)C)cc2)nn1", "> 6810"),
    ("COc1ccc(C(=N)N)cc1-c1cn(-c2ccc(C(=N)N)cc2)nn1.Cl.Cl", "> 28300"),
    ("COc1ccc(C2=NCCN2)cc1-n1cc(-c2cccc(C3=NCCN3)c2)nn1", "> 5730"),
    ("COc1cc(C(=N)N)ccc1-c1cn(-c2cccc(C(=N)N)c2)nn1.Cl.Cl", 23400),
]
